The measurements presented in this section are drawn from the METLIN SMRT retention time set (Domingo-Almenara et al. 2019).

Recorded RP-LC retention time for the following compounds
- method-description: gradient 5% acetonitrile 3 min, to 50% in 2 min, to 85% in 15 min, held 3 min, 100 µL/min
- condition-context: column: Zorbax Extend-C18 2.1 x 50 mm; eluents: water / acetonitrile, 0.1% formic acid
Numbers only here, please. The scale is s.

Some compounds with recorded RP-LC retention time:
compound="COCc1noc(CC2CCOC3(CCN(Cc4ccc5c(c4)CCO5)CC3)C2)n1 (centres undefined)" observation_type="RP-LC retention time" observed_result=646
compound=Cc1cccc(S(=O)(=O)N2CCC(c3noc(-c4cccc(F)c4)n3)CC2)c1 observation_type="RP-LC retention time" observed_result=1110
compound=Cc1c(C2CCN(C(=O)c3cc4ccccc4[nH]3)CC2)noc1N observation_type="RP-LC retention time" observed_result=729

Reported RP-LC retention time for CCN(CC)C(=O)c1ccc2c(c1)N(Cc1ccc(C)cc1)C(=O)CO2 : what is it?
588

For the compound CCCN(C)C(=O)c1cc2c(s1)N(CC1CC1)CCCC2 , what RP-LC retention time is on record?
1160

Query (compound): COCC(=O)Nc1cnc(-c2ccccc2)nc1 ; field requested: RP-LC retention time
729

Give its RP-LC retention time value. Item: CCSCCOC(=O)C1=C(C)NC(=O)NC1c1cccc(OC)c1OC (centres undefined)
792

Any idea what RP-LC retention time was measured for Cc1nc([C@@H]2CCCN2C(=O)CCc2ccccc2)n[nH]1 ?
634

Record request: RP-LC retention time value, item CCOC(=O)C1CCN(C(=O)CN2C(=O)COc3ccc(C(=O)N(C)C)cc32)CC1
648

If you can, please state the reported RP-LC retention time value of CCc1cc(C(=O)Nc2ccc(C)cc2C)nc2ccnn12 .
1090

Look up RP-LC retention time: Cc1ccc(C)c(NC(=O)C2CCCN2S(=O)(=O)c2cc3c(cc2C)NC(=O)C(C)O3)c1 (centres undefined)
845

RP-LC retention time lookup needed for COCCc1noc(C2Cc3ccccc3N2C(=O)NCc2ccco2)n1 (centres undefined) , thanks.
807

May I ask what RP-LC retention time has been recorded for O=C(c1cc(Cl)ccc1F)N1CCC2(CC1)NC(=O)N(Cc1ccc(F)cc1)C2=O ?
852

* * *

- method-description: gradient 5% acetonitrile 3 min, to 50% in 2 min, to 85% in 15 min, held 3 min, 100 µL/min
- condition-context: column: Zorbax Extend-C18 2.1 x 50 mm; eluents: water / acetonitrile, 0.1% formic acid
// class assignment uses RP-LC retention time with these ranges: LOW (below 700 s), MID (700 s to below 900 s), HIGH (900 s or more)

Here's what some known entries look like.
molecule="COc1ccc(C)cc1NC(=O)C1CCN(S(C)(=O)=O)c2cc(C)ccc2O1 (stereo not given)" qualitative_label=HIGH
molecule=COc1cc(OC)c(NC(=O)Cc2nnc(-c3ccc4ncccc4c3)o2)cc1Cl qualitative_label=HIGH
molecule=CCOc1cccc(-c2noc(Cn3ncn4nc(-c5ccccc5Cl)cc4c3=O)n2)c1 qualitative_label=HIGH
molecule="CCNC(=O)N1CCCC(Cc2nncn2C(C)C)C1 (stereo not given)" qualitative_label=LOW

Could you tell me which band Cn1cc(-c2cc3n(n2)CCC(=O)N3CCCC(=O)NC2CCCCC2)c2ccccc21 belongs to?
MID

Hi, small favor: classify Cc1noc(C)c1Cc1ccc(C(=O)N2CCCC(c3[nH]ccc3C(N)=O)C2)o1 (stereo not given) by its RP-LC retention time when you get a moment.
LOW

// bin(item) where item = O=C1CC(NC(=O)COc2ccc(F)cc2)CN1 (stereo not given)
LOW

Class label required: CCc1cccc(C)c1N(C(=O)Cn1c(CC)nc2ccccc21)C(C)COC (stereo not given)
MID

# bin label for c1ccc2c(-c3nc(C4CC4)no3)nnc(NC3CCCCC3)c2c1
MID

* * *

- method-description: gradient 5% acetonitrile 3 min, to 50% in 2 min, to 85% in 15 min, held 3 min, 100 µL/min
- condition-context: column: Zorbax Extend-C18 2.1 x 50 mm; eluents: water / acetonitrile, 0.1% formic acid
RP-LC retention time less than 700 s is 1; RP-LC retention time greater than or equal to 700 s is -1.

compound=O=C(Cc1ccc(S(=O)(=O)N2CCN(c3ccccn3)CC2)s1)N1CCCC1 qualitative_label=1
compound=Cn1c(=O)c(N2CCN(C(=O)c3ccc(F)cc3F)CC2)nc2ccncc21 qualitative_label=1
compound=Cc1ccc(C)c2c(=O)c3c([nH]c12)CCN(CC(=O)Nc1ccccc1)C3 qualitative_label=1
compound="Cc1ccc(S(=O)(=O)N2CCC3(CC2)CC(C)(O)CCO3)cc1F (stereo not given)" qualitative_label=-1
compound=CC1CCN(c2cc(-n3cnc(C(=O)N4CCC(C(N)=O)CC4)c3)ncn2)CC1 qualitative_label=1
compound=O=S(=O)(c1cc(F)cc(F)c1)N1CCC(c2noc(-c3cccc(F)c3)n2)CC1 qualitative_label=-1

Does COc1ccccc1-c1noc(C2CCCN2C(=O)c2ccc3c(c2)OCO3)n1 (stereo not given) have RP-LC retention time strictly under 700 s?
-1

Identify whether the compound O=C(c1ccncc1)N1CCCC(OCc2nc(C3CC3)no2)C1 (stereo not given) records RP-LC retention time below 700 s.
1

Dear colleague, could you confirm whether RP-LC retention time of Cc1csc(-c2csc(S(=O)(=O)Nc3ccc(F)c(Cl)c3)c2)n1 falls below 700 s? Thanks.
-1

* * *

- method-description: gradient 5% acetonitrile 3 min, to 50% in 2 min, to 85% in 15 min, held 3 min, 100 µL/min
- condition-context: column: Zorbax Extend-C18 2.1 x 50 mm; eluents: water / acetonitrile, 0.1% formic acid
observation-type: RP-LC retention time (s)
Just the number please, in s, no unit attached.

Consider the worked cases shown below.
molecule=O=C([C@@H]1C[C@H](Oc2ccccc2)CN1C(=O)c1cccs1)N1CCCC1 measurement_unit=s observed_result=767
molecule="COC(=O)CCNC(=O)C1c2ccccc2C(=O)N(Cc2ccco2)C12CCCCC2 (centres undefined)" measurement_unit=s observed_result=799
molecule="Cc1n[nH]c(C)c1CCC(=O)N1CCCn2ccnc2C1C1CCCC1 (centres undefined)" measurement_unit=s observed_result=559

Quick check: RP-LC retention time of CCOc1ccc(C2Cn3nnc(-c4nc(C)no4)c3CO2)cc1 (centres undefined) ?
917

State the recorded RP-LC retention time for this entry: CN1C(=O)CO[C@@H](C(=O)Nc2ccc(F)cc2F)[C@@H]1c1ccccc1
766

I'd like to know its RP-LC retention time. The molecule in question is Cc1ccc(-c2nc(C)c3c(n2)N(Cc2ccccn2)C(=O)CC3)cc1
771

Give its RP-LC retention time value. Item: CCS(=O)(=O)c1ccc(-c2ccc(NS(=O)(=O)c3ccc(Cl)s3)cc2)nn1
810

# lookup: RP-LC retention time of CC(C)CNC(=O)c1nc2cccnc2n(CC(C)C)c1=O
940

Quick check: RP-LC retention time of Cc1nn(CC(=O)N2CCC(N3CCCCC3)CC2)c(=O)c2nn(-c3ccccc3)c(C)c12 ?
605

Would you mind telling me what RP-LC retention time value was observed for CCCNC(=O)C1CCCN(c2nc3ncn(CC(=O)Nc4cc(C)cc(C)c4)c(=O)c3s2)C1 (centres undefined) ?
759

* * *

- method-description: gradient 5% acetonitrile 3 min, to 50% in 2 min, to 85% in 15 min, held 3 min, 100 µL/min
- condition-context: column: Zorbax Extend-C18 2.1 x 50 mm; eluents: water / acetonitrile, 0.1% formic acid
Threshold check on RP-LC retention time: at or above 600 s gives criterion met, strictly below gives criterion not met.

Kindly determine if RP-LC retention time recorded for COc1ccc(NC(=O)N2CCC(c3nc(C(=O)N(C)C)c(C)o3)CC2)cc1OC is above or exactly 600 s.
criterion met

Please indicate if the recorded RP-LC retention time for Cc1c(C(=O)NC2CC2)cnn1-c1cc(-c2nc(C(C)(C)C)no2)ccn1 meets or exceeds 600 s.
criterion met

Identify whether the reported RP-LC retention time of the following molecule is 600 s or greater: CCOc1ccccc1C(=O)N(C)CC1(C)CCOCC1
criterion met

Confirm if RP-LC retention time reported for the molecule O=C(NCc1cccnc1)C1(c2ccccc2)CCOCC1 is 600 s or above.
criterion not met

Is the recorded value of RP-LC retention time equal to or greater than 600 s for this molecule? COc1ccc(-c2nc(-c3cn(-c4cccc(F)c4)nn3)no2)c(OC)c1
criterion met

* * *

- method-description: gradient 5% acetonitrile 3 min, to 50% in 2 min, to 85% in 15 min, held 3 min, 100 µL/min
- condition-context: column: Zorbax Extend-C18 2.1 x 50 mm; eluents: water / acetonitrile, 0.1% formic acid
observation-type: RP-LC retention time (s)
Give your result in s as a bare value.

Reported RP-LC retention time, molecule CCOC(=O)N1CCN(C(=O)C2CN(C(=O)c3c[nH]c4ccccc34)C2)CC1 : ____
633

Item under review: CC1CCN(c2cc(-c3noc(C(=O)NCCN4CCOCC4)n3)ccn2)CC1 . Reported RP-LC retention time?
572

Query: RP-LC retention time; subject: CCCN1C(=O)COc2cc(-c3noc(C(=O)NCCC4=CCCCC4)n3)ccc21
1180

Query: RP-LC retention time; subject: CC(C)c1cc(C2NNC(=O)N2c2ccc3c(ccn3C)c2)c(O)cc1O (centres undefined)
796

Name the reported RP-LC retention time value associated with the molecule O=C(c1ccc2nc[nH]c2c1)N1CCC(c2nc(-c3ccccc3)no2)C1 (centres undefined)
626

RP-LC retention time for Cc1cccc(N(C)S(=O)(=O)c2ccsc2-c2nc(C)no2)c1 ?
978

Need RP-LC retention time, item COc1ccc(CNC(=O)N2C[C@@H]3CN(S(=O)(=O)c4cccc(F)c4)C[C@H](C2)O3)cc1
771
